- Test system: Staphylococcus aureus
- METHOD_SUMMARY: Susceptibility of methicillin-sensitive/resistant Staphylococcus aureus single-step mutant by agar dilution method
- Assay type: functional

COMPOUND: C[C@H]1COc2c(N3CCN(C)CC3)c(F)cc3c(=O)c(C(=O)O)cn1c23.C[C@H]1COc2c(N3CCN(C)CC3)c(F)cc3c(=O)c(C(=O)O)cn1c23.O [LEVOFLOXACIN]
TEST_TARGET: Staphylococcus aureus
MIC, µg/mL: 2

COMPOUND: N[C@@H]1CN(c2c(F)cc3c(=O)c(C(=O)O)cn(C4C[C@@H]4F)c3c2Cl)CC12CC2 (single isomer, unassigned) [SITAFLOXACIN ANHYDROUS]
TEST_TARGET: Staphylococcus aureus
MIC, µg/mL: 0.25

COMPOUND: COc1c(N2C[C@@H]3CCCN[C@@H]3C2)c(F)cc2c(=O)c(C(=O)O)cn(C3CC3)c12 [MOXIFLOXACIN]
TEST_TARGET: Staphylococcus aureus
MIC, µg/mL: 0.5

COMPOUND: Cc1c(N2C[C@@H](F)[C@@H](C3(N)CC3)C2)c(F)c(N)c2c(=O)c(C(=O)O)cn([C@@H]3C[C@@H]3F)c12 [DQ-113]
TEST_TARGET: Staphylococcus aureus
MIC, µg/mL: 0.03

* * *

- Tested on: Streptococcus pneumoniae
- METHOD_SUMMARY: Susceptibility of penicillin-resistant Streptococcus pneumoniae 217 by agar dilution method
- Format: functional
Known MIC of a selection of compounds
ENDPOINT: MIC

COMPOUND: COc1c(N2C[C@@H]3CCCN[C@@H]3C2)c(F)cc2c(=O)c(C(=O)O)cn(C3CC3)c12
ENDPOINT: MIC
RESULT: 0.25 µg/mL

COMPOUND: O=C(O)c1cn(C2CC2)c2cc(N3CCNCC3)c(F)cc2c1=O
ENDPOINT: MIC
RESULT: 1 µg/mL

COMPOUND: N[C@@H]1CN(c2c(F)cc3c(=O)c(C(=O)O)cn(C4C[C@@H]4F)c3c2Cl)CC12CC2 (single isomer, unassigned) [SITAFLOXACIN ANHYDROUS]
ENDPOINT: MIC
RESULT: 0.12 µg/mL

COMPOUND: Cc1c(N2C[C@@H](F)[C@@H](C3(N)CC3)C2)c(F)c(N)c2c(=O)c(C(=O)O)cn([C@@H]3C[C@@H]3F)c12
ENDPOINT: MIC
RESULT: 0.004 µg/mL

* * *

Known MIC of a selection of compounds
- System: Streptococcus pneumoniae
- METHOD_SUMMARY: Effect on 0.5 ug/ml sitafloxacin-selected penicillin-resistant Streptococcus pneumoniae 216 mutant after five passages assessed as susceptibility by agar dilution method
- Format: functional
ENDPOINT: MIC

COMPOUND: Cc1c(N2C[C@@H](F)[C@@H](C3(N)CC3)C2)c(F)c(N)c2c(=O)c(C(=O)O)cn([C@@H]3C[C@@H]3F)c12 [DQ-113]
ENDPOINT: MIC
RESULT: 0.03 µg/mL
--
COMPOUND: O=C(O)c1cn(C2CC2)c2cc(N3CCNCC3)c(F)cc2c1=O [CIPROFLOXACIN]
ENDPOINT: MIC
RESULT: 32 µg/mL
--
COMPOUND: COc1c(N2C[C@@H]3CCCN[C@@H]3C2)c(F)cc2c(=O)c(C(=O)O)cn(C3CC3)c12 [MOXIFLOXACIN]
ENDPOINT: MIC
RESULT: 2 µg/mL
--
COMPOUND: N[C@@H]1CN(c2c(F)cc3c(=O)c(C(=O)O)cn(C4C[C@@H]4F)c3c2Cl)CC12CC2 (single isomer, unassigned) [SITAFLOXACIN ANHYDROUS]
ENDPOINT: MIC
RESULT: 1 µg/mL

* * *

- System: Streptococcus pneumoniae
- METHOD_SUMMARY: Effect on 2 ug/ml moxifloxacin-selected penicillin-resistant Streptococcus pneumoniae 218 mutant after five passages assessed as susceptibility by agar dilution method
- Format: functional
Known MIC of a selection of compounds

COMPOUND: N[C@@H]1CN(c2c(F)cc3c(=O)c(C(=O)O)cn(C4C[C@@H]4F)c3c2Cl)CC12CC2 (single isomer, unassigned) [SITAFLOXACIN ANHYDROUS]
MIC (µg/mL): 1

COMPOUND: Cc1c(N2C[C@@H](F)[C@@H](C3(N)CC3)C2)c(F)c(N)c2c(=O)c(C(=O)O)cn([C@@H]3C[C@@H]3F)c12
MIC (µg/mL): 0.03

COMPOUND: O=C(O)c1cn(C2CC2)c2cc(N3CCNCC3)c(F)cc2c1=O
MIC (µg/mL): 128

COMPOUND: COc1c(N2C[C@@H]3CCCN[C@@H]3C2)c(F)cc2c(=O)c(C(=O)O)cn(C3CC3)c12
MIC (µg/mL): 4

These data points were gathered from ChEMBL document CHEMBL1146198.
